molecular target: Proteasome subunit beta (Trypanosoma cruzi) (UniProt O96673); assay: Trypanosoma cruzi proteasome chymotrypsin-like activity (TcProtChymo) assay.; type: functional; parameters: scale not given: in the data most compounds retested in dose-response had high values; details: 9.37 µM
Sequence (O96673 as listed by the source): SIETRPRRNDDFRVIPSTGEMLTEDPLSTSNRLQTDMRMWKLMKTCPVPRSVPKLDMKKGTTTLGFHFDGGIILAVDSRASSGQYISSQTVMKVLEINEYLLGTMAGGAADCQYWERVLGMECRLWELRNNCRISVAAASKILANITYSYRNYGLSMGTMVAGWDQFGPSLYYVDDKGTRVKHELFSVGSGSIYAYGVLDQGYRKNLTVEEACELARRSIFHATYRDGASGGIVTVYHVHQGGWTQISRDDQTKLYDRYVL
Collected Percent Effect values appear next to each entry.
I only need the number, in %, no unit after it.

Here are 5 compounds together with their reported answers.
compound=Cc1noc([C@@H]2C[C@H]3CN(Cc4cc(C)on4)C[C@H]3O2)n1 unit_label=% value_observed=12.4
compound=c1cc(CN2CCO[C@H]3[C@H](OCC4CCCC4)CC[C@@H]32)ccn1 unit_label=% value_observed=19
compound=Cc1cccc(CN2CC[C@@H]3[C@@H]2CCN3C(=O)c2ccno2)n1 unit_label=% value_observed=12.1
compound="O=C1NC2(CCNCC2)CC1c1cccnc1 (stereo not drawn)" unit_label=% value_observed=8.55
compound="Cn1cc(N2CCC3(CCN(Cc4cccnc4)C3)C2=O)cn1 (stereo not drawn)" unit_label=% value_observed=25.1

Looking for the measured Percent Effect of Cc1ncsc1CN1CC[C@H]2C[C@H](c3ccncn3)O[C@@H]2C1 , can you help?
9.4

Record: Cc1cc(CN2C[C@@H]3COC[C@]3(CNC(=O)c3ccno3)C2)no1
13.1

Record: COc1cccc(CNC(C)Cn2cccn2)c1OC (stereo not drawn)
2.37

====

Collected Percent Effect values appear next to each entry.
target: Aspartate--tRNA(Asp/Asn) ligase (Mycobacterium tuberculosis (strain ATCC 25618 / H37Rv)) (UniProt P9WFW3); assay: Assay for Asp RNA synthetase-1 from Mycobacterium tuberculosis; assay type: functional; design: scale not given: in the data most compounds retested in dose-response had high values; settings: 30 µM
Sequence (P9WFW3 whole entry): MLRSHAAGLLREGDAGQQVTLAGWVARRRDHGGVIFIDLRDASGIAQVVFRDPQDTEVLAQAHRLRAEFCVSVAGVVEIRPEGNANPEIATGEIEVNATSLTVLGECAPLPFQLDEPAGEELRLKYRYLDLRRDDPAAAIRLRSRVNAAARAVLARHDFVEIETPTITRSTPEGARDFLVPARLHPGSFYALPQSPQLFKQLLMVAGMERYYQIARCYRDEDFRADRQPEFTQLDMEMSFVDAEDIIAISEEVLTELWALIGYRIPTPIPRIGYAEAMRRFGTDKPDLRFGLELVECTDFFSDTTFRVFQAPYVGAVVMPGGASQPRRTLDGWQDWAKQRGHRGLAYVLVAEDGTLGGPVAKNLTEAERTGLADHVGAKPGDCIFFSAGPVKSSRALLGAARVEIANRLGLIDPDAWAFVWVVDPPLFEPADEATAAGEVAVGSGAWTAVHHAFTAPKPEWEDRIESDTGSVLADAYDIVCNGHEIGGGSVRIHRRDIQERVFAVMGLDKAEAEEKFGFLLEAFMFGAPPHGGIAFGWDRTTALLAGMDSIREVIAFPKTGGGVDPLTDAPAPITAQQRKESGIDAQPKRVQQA
I only need the number, in %, no unit after it.

compound=CN1CCC/C1=N\S(=O)(=O)c1ccc(NC(=O)CCc2cccs2)cc1 unit_label=% value_observed=1.3
compound=CNC(=O)c1cc2c(nc1NCC1CC1)CCN(c1ccncn1)CC2 unit_label=% value_observed=-4.09
compound=O=C1NCCN1C1CCN(Cc2ccccn2)CC1 unit_label=% value_observed=-1.42
compound="Cc1cnn(CC(C)NCc2csc(-c3ccco3)n2)c1 (stereo unspecified)" unit_label=% value_observed=2.75
compound=N#Cc1cccc(S(=O)(=O)NC(=O)COC2CCCC2)c1 unit_label=% value_observed=1.85

Looking for the measured Percent Effect of Cc1noc(C)c1CN1CC[C@H]2OCC[C@@H](C(=O)NCC3CC3)[C@@H]2C1 , can you help?
-1.49

Record: Cc1nnc2n1CCN(C(=O)COCCOc1ccccc1)C2
-0.422

====

target: Aspartate--tRNA(Asp/Asn) ligase (Mycobacterium tuberculosis (strain ATCC 25618 / H37Rv)); test: Assay for Asp RNA synthetase-1 from Mycobacterium tuberculosis; assay type: functional; design: scale not given: in the data most compounds retested in dose-response had high values; conditions: 30 µM
assay metric: Percent Effect (%)
I only need the number, in %, no unit after it.

Here are 5 molecules together with their reported answers.
molecule="FC(F)(F)COCCN1CCCC(c2noc(C3CC3)n2)C1 (configuration not stated)" subject_of_test="Aspartate--tRNA(Asp/Asn) ligase (Mycobacterium tuberculosis (strain ATCC 25618 / H37Rv))" value_observed=-0.517
molecule=CC(=O)N1CCN(CCNS(=O)(=O)c2ccc(C)c(F)c2)CC1 subject_of_test="Aspartate--tRNA(Asp/Asn) ligase (Mycobacterium tuberculosis (strain ATCC 25618 / H37Rv))" value_observed=-1.95
molecule="CC(Cn1cccn1)NC(=O)N1CCN(Cc2cccs2)CC1 (configuration not stated)" subject_of_test="Aspartate--tRNA(Asp/Asn) ligase (Mycobacterium tuberculosis (strain ATCC 25618 / H37Rv))" value_observed=-5.57
molecule=Cc1nccn1-c1cc(CNC(=O)c2ccccn2)ccn1 subject_of_test="Aspartate--tRNA(Asp/Asn) ligase (Mycobacterium tuberculosis (strain ATCC 25618 / H37Rv))" value_observed=8.28
molecule=CCN1CCN(C(=O)c2ccn(C)c(=O)c2)CC1 subject_of_test="Aspartate--tRNA(Asp/Asn) ligase (Mycobacterium tuberculosis (strain ATCC 25618 / H37Rv))" value_observed=2.87

Looking for the measured Percent Effect of CCN(CC1CCCO1)C(=O)Nc1cc(C(=O)OC)ccc1F (configuration not stated) , can you help?
-1.37

Record: CN(Cc1nc(C2CC2)no1)C1CCCN(c2cccnn2)C1 (configuration not stated)
-4.8
